- Assayed System: human recombinant H-PGDS (Homo sapiens)
- Sequence (O60760 whole entry): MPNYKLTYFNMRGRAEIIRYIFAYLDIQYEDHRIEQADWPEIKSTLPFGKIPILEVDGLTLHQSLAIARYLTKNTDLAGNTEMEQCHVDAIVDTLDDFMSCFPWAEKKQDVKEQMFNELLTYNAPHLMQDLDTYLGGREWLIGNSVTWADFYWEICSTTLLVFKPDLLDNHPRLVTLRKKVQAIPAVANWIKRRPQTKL
- Test Protocol: Fluorescence intensity h-PGDS TBA enzyme assay
- Format: biochemical
- Assay Conditions: Examples up to 622 (and 3a, 3b)
Measurement Type: IC50 (nM)

INSERT INTO results (compound, reported_value) VALUES
  ('CC(C)(C)OC(=O)N1C[C@H](O)[C@H](NC(=O)c2ccc(-c3cccc(F)c3)nc2)C1 (relative stereo)', 5.43),
  ('O=C(NC1CCN(c2cccnn2)CC1)c1ccc(-c2cccc(F)c2)nc1', 0.35),
  ('O=C1COc2ccc(CN3CCC(NC(=O)c4ccc(-c5cccc(F)c5)nc4)CC3)cc2N1', 1.06),
  ('O=C(NC1CCN(Cc2cccc(-n3cccn3)c2)CC1)c1ccc(-c2cccc(F)c2)nc1', 0.707),
  ('CCOC(=O)Cn1cc(CN2CCC(NC(=O)c3ccc(-c4cccc(F)c4)nc3)CC2)cn1', 1.49),
  ('O=C(NC1CCN(CC2CCC=CO2)CC1)c1ccc(-c2cccc(F)c2)nc1 (centres unmarked)', 1.79);

P = O=C(NC1CCN(c2nccnc2-c2ccccc2)CC1)c1ccc(-c2cccc(F)c2)nc1
Q = NC(=O)c1cccnc1N1CCC(NC(=O)c2ccc(-c3cccc(F)c3)nc2)CC1
[in] Please indicate which item has the smaller measured IC50: P versus Q Answer with the label corresponding to your selection.
[out] Q
(Q: 0.246 nM, P: 8.58 nM)
